meta.source: PubChem BioAssay AID434970

- Test system: intestinal alkaline phosphatase [Mus musculus]
- assay name: mouse intestinal phosphatase enzyme activation – biochemical, luminescence, single concentration, confirmation (AID 434970)
- experimental setup: purified mouse IAP, CDP-Star luminescence, 30 min, at 10 µM; measured here: IAP activation factor, stronger effect = higher value
Out of some 11,000 compounds screened, about 310 (2.8%) were called active. The sample as a whole holds a higher share of actives than the screen did.

compound	assay system	activation factor
CC1CCCC(NC(=S)Nc2ccc(SC(F)F)cc2)C1C (stereo not drawn)	intestinal alkaline phosphatase [Mus musculus]	2.09
O=C(NNc1cccc(Cl)n1)Nc1ccccc1	intestinal alkaline phosphatase [Mus musculus]	0.964
COc1cccc(-n2c(SCC(=O)Nc3nccs3)nnc2-c2ccoc2C)c1	intestinal alkaline phosphatase [Mus musculus]	0.982
FC(F)Sc1ccc(NC(=S)NC2CCC(NC(=S)Nc3ccc(SC(F)F)cc3)CC2)cc1 (stereo not drawn)	intestinal alkaline phosphatase [Mus musculus]	2.35
FC(F)Sc1ccc(NC(=S)NC2CCCCC2)cc1	intestinal alkaline phosphatase [Mus musculus]	1.25
FC(F)Sc1ccc(NC(=S)NCc2ccccc2)cc1	intestinal alkaline phosphatase [Mus musculus]	1.27
CCOC(=O)Cn1cnc([N+](=O)[O-])n1	intestinal alkaline phosphatase [Mus musculus]	0.92
COc1cccc(C(=O)NC2CC3CCCC(C2)N3CC(=O)Nc2ccc(N(C)C)cc2)c1 (stereo not drawn)	intestinal alkaline phosphatase [Mus musculus]	0.99

* * *

- Tested on: intestinal alkaline phosphatase [Mus musculus]
- assay name: mouse intestinal phosphatase enzyme activation – biochemical, luminescence, single concentration, confirmation (AID 434970)
- experimental setup: purified mouse IAP, CDP-Star luminescence, 30 min, at 10 µM; measured here: IAP activation factor, stronger effect = higher value
Among all 11,000 compounds or so, about 310 (2.8%) were called active. This excerpt belongs to a sample that is enriched for actives.

molecule	activation factor
COc1ccc(CCn2c(C)cc(C(=O)CSc3nnc(N)s3)c2C)cc1	0.959
Cc1cc(C)cc(NC(=O)Nc2ccc(N3CCCCC3)cc2)c1	1.16
COC(=O)c1cn(NC(=O)C2CCCO2)c(=O)c2ccccc12 (centres undefined)	1.03
COc1cc(C2Nc3cc(Cl)c(S(N)(=O)=O)cc3S(=O)(=O)N2)ccc1OCc1ccccc1 (centres undefined)	0.84

* * *

- Test system: intestinal alkaline phosphatase [Mus musculus]
- assay name: mouse intestinal phosphatase enzyme activation – biochemical, luminescence, single concentration, confirmation (AID 434970)
- experimental setup: purified mouse IAP, CDP-Star luminescence, 30 min, at 10 µM
Out of some 11,000 compounds screened, about 310 (2.8%) were called active. Rule as the data show it: active = activity change below about -85%; inactive = the rest. What follows is part of a selection rich in actives, with near analogues and random picks from the rest.
Outcomes: class 1 (active), class 0 (inactive)

molecule	assay system	assigned class
CC(C)(C)N(C(=O)Cn1nnc(-c2ccc(F)cc2)n1)C(C(=O)NC1CCCC1)c1ccncc1 (centres undefined)	intestinal alkaline phosphatase [Mus musculus]	class 0
NC(=O)CSc1nnc(-c2cccnc2)n1CCc1ccccc1	intestinal alkaline phosphatase [Mus musculus]	class 0
C#CCOCCOCCOCCNc1nc(N2CCN(C(=O)CCCCCCCCCCNC(=O)[C@H]([C@@H](C)CC)n3cc(CCCCN=C(N)N)nn3)CC2)nc(N2CCN(C(=O)CCCCCCCCCCNC(=O)[C@H]([C@@H](C)CC)n3cc(CCCCN=C(N)N)nn3)CC2)n1	intestinal alkaline phosphatase [Mus musculus]	class 1
Cc1ccc(C)c(NS(=O)(=O)c2ccc3[nH]c(=O)oc3c2)c1	intestinal alkaline phosphatase [Mus musculus]	class 0
